Biological target: GFP-tagged TRIM24 in HeLa cells (Homo sapiens, UniProt O15164)
Construct: PB-TRIM24 PHD and bromodomain of TRIM24
Sequence (O15164 810-1050 limits assumed): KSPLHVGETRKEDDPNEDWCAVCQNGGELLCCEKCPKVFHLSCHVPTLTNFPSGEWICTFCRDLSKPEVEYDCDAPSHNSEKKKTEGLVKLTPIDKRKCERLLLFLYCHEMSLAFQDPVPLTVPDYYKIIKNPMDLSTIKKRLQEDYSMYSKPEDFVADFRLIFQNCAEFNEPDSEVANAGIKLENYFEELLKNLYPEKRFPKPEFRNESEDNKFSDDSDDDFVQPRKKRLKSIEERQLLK
Test: GFP version of the in situ cell extraction assay
Conditions: HeLa cells expressing GFP-tagged TRIM24; 1 h incubation
readout_label: EC50 (nM)
Use nM as the unit, but write only the number.

Item `Cc1nc(S(=O)(=O)Nc2cc3c(cc2Oc2cccc(OCC(C)C)c2)n(C)c(=O)n3C)cn1C` with GFP-tagged TRIM24 in HeLa cells (Homo sapiens, UniProt O15164) - EC50?
2300
